Quick reference for pIC50 among some compounds
Tgt: Recombinant human c-Cbl (aa 47-435) (Homo sapiens)
Sequence (P22681 47-435): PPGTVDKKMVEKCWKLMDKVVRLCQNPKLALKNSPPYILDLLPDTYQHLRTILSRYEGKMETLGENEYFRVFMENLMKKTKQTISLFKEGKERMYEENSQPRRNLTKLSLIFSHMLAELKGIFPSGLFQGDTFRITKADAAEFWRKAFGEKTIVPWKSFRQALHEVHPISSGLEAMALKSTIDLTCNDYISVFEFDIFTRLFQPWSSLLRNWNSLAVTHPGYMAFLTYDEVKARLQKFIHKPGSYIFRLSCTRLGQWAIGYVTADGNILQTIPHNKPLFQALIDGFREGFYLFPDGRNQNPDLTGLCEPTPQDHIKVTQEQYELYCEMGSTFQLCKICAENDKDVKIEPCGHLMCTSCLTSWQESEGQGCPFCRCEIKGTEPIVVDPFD
Assay text: c-Cbl Biochemical Assay (TR-FRET)
Conditions used: hc-Cbl Biochemical Assay (TR-FRET); read-out: TR-FRET hcCbl IC50
pIC50: −log10 of the molar value.

{"columns": ["Query smiles", "pIC50"],
 "data": [
  ["CN(C)CCOc1ccc2nc(-c3cccc(C4(Cc5nncn5C)COC4)c3)[nH]c2c1C(F)(F)F", "4.30 to 5.00"],
  ["Cn1cnnc1-c1cc(F)ccc1-c1cc(-c2nc3cc(CNCC4(O)CCC4)cc(F)c3o2)nc(C2CC2)c1", "> 6.70"],
  ["COC(=O)c1ccc2[nH]c(-c3cc(-c4ccc(F)cc4-c4nncn4C)cc(C4CC4)n3)nc2c1", "4.30 to 5.00"],
  ["CCNCc1cc2nc(-c3cc(-c4ccc(F)cc4-c4nncn4C)cc(C4CC4)n3)oc2c(F)c1F", "6.00 to 6.70"],
  ["Cn1cnnc1CC1(c2cccc(-c3cc(C(F)(F)F)cn(CCO)c3=O)c2)COC1", "4.30 to 5.00"],
  ["[2H]C([2H])([2H])N(Cc1cc(C(F)(F)F)c2oc(-c3cccc(-c4ccc(F)cc4-c4nncn4C)c3)nc2c1)[C@@H]1CCC[C@@H]1O", "> 6.70"],
  ["Cn1cnnc1-c1cc(F)ccc1-c1cccc(-c2nc3cc(NCCN4CC(F)(F)C4)cc(C(F)(F)F)c3o2)c1", "6.00 to 6.70"]
]}
